Molecular target: A1 adenosine receptor (Cavia porcellus, UniProt P47745)
Details: -LOG EC50 A1, BIOASSAY RESULTS table, A1
pEC50: −log10 of the molar value.
MEASURED_ATTRIBUTE: pEC50

These solved cases illustrate the format of a correct answer.
MOLECULE | SYSTEM_TESTED | pEC50
Cc1ccc(C=NNc2nc(N)c3ncn([C@@H]4O[C@H](CO)[C@@H](O)[C@H]4O)c3n2)cc1 | A1 adenosine receptor (Cavia porcellus, UniProt P47745) | 4.40
CC(C)CCC=NNc1nc(N)c2ncn([C@@H]3O[C@H](CO)[C@@H](O)[C@H]3O)c2n1 | A1 adenosine receptor (Cavia porcellus, UniProt P47745) | 4.68

P = NNc1nc(N)c2ncn([C@@H]3O[C@H](CO)[C@@H](O)[C@H]3O)c2n1 [Example 8, reference compound]
Q = CCCCCC=NNc1nc(N)c2ncn([C@@H]3O[C@H](CO)[C@@H](O)[C@H]3O)c2n1
QUERY: Which has the smaller recorded pEC50, P or Q ? Write the label of whichever entry you select.
RESULT: Q
(Q: 4.41, P: 4.70)

###

Tested on: A2 adenosine receptor
Details: EC50-SQPR divided by EC50-CF; >1 indicates selectivity for A2 adenosine receptor
MEASURED_ATTRIBUTE: Selectivity (SQPR/CF)

Here are 2 compounds together with their reported answers.
COMPOUND | Selectivity (SQPR/CF)
Nc1nc(NN=Cc2cccs2)nc2c1ncn2[C@@H]1O[C@H](CO)[C@@H](O)[C@H]1O | 4400
Nc1nc(NN=Cc2cccc3ccccc23)nc2c1ncn2[C@@H]1O[C@H](CO)[C@@H](O)[C@H]1O | 110

I = NNc1nc(N)c2ncn([C@@H]3O[C@H](CO)[C@@H](O)[C@H]3O)c2n1 [Example 8, reference compound]
II = Nc1nc(NN=Cc2ccc3ccccc3c2)nc2c1ncn2[C@@H]1O[C@H](CO)[C@@H](O)[C@H]1O
QUERY: Just curious, which one has the larger Selectivity (SQPR/CF) reading, I or II ? Please reply using the label of the selected record.
RESULT: II
(II: 767, I: 301)

###

Biological target: UniProtKB P47745
Sequence (P47745 1-326): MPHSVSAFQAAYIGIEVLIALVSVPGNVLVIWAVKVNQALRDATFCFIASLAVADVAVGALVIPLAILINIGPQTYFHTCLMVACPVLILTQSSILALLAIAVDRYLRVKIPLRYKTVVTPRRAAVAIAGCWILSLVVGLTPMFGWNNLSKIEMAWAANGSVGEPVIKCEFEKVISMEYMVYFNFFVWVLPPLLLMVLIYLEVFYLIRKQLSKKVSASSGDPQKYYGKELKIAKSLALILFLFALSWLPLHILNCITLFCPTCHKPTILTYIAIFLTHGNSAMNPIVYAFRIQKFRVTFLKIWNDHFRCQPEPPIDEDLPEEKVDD
MEASURED_ATTRIBUTE: pEC50
pEC50 field: float, defined as -log10 of concentration (mol/L).

QUERY: Look up pEC50: Nc1nc(N)c2ncn([C@@H]3O[C@H](CO)[C@@H](O)[C@H]3O)c2n1 [2-Amino-adenosine, reference compound]
RESULT: 4.95

###

Molecular target: A1 adenosine receptor (Cavia porcellus)
Settings: EC50 -SQPR, prolongation of stimulus-QRS interval by 50% of maximum response, perfused guinea pig heart
pEC50: −log10 of the molar value.
MEASURED_ATTRIBUTE: pEC50

MOLECULE | pEC50
Nc1nc(NN=Cc2ccc(F)cc2)nc2c1ncn2[C@@H]1O[C@H](CO)[C@@H](O)[C@H]1O | 4.90
Nc1nc(NN=CC2CCCCC2)nc2c1ncn2[C@@H]1O[C@H](CO)[C@@H](O)[C@H]1O | 5.45
NNc1nc(N)c2ncn([C@@H]3O[C@H](CO)[C@@H](O)[C@H]3O)c2n1 [Example 8, reference compound] | 4.84
